- Tested on: SR leukemia
- Test details: NCI-60 one-dose screen, 48 h
- Experimental context: 10 µM
Compounds without any hit were thinned out: in the full panel of roughly 83,000, 20% have a hit. The source made the active and inactive calls. Rule for the calls: active = growth percent below 10; inactive = the rest.
Classes used: active, inactive

compound=COc1ccc(-c2nn(-c3cccc(NC(=O)c4ccc(Cl)c(Cl)c4)c3)cc2-c2ccncc2)cc1Cl category=inactive
compound="CCCN(CCC)CCC(O)c1cc2c(c3ccccc13)CCCC2 (stereo not given)" category=inactive
compound=O=C1/C(=C\c2ccc(F)cc2)CN(C(=O)c2ccccc2)C/C1=C\c1ccc(F)cc1 category=active
compound=CC(=O)/C(=C/c1ccccc1)C(=O)CC(C)C category=active
compound=COc1ccc(-c2cc(-c3cccc(NS(C)(=O)=O)c3)nc(N)c2C#N)cc1 category=inactive
compound=O=C(Nc1ccccc1)Nc1cccc(-n2cc(-c3ccncc3)c(-c3ccc(O)c(Cl)c3)n2)c1 category=inactive
compound=Cc1nc2ccccc2c(N)c1-c1cc(C)c2c(C)nc3ccccc3c2n1 category=active
compound=Cc1cs/c(=N\NC(=O)c2cc(-c3cc4ccccc4o3)nn2-c2ccccc2)n1-c1ccccc1 category=inactive
compound=Clc1ccccc1N=Cc1ccc2c(c1)OCO2 category=inactive
compound=COc1ccc(-c2ccc(-c3ccc(C(=N)N)cn3)o2)cc1 category=inactive
compound=COc1ccc2c(c1)O/C(=C\c1ccc([N+](=O)[O-])s1)C2=O category=inactive
compound=O=C1/C(=C\c2ccc(F)cc2)CN(C(=O)c2ccc([N+](=O)[O-])cc2)C/C1=C\c1ccc(F)cc1 category=active
compound=O=C(Nc1ccc(OS(=O)(=O)c2ccccc2)cc1)C12CC3CC(CC(C3)C1)C2 category=inactive
compound=COc1ccc(-c2ccc3cc(C(=O)Nc4ccc(O)c(C(=O)/C=C/c5cc(OC)c(OC)c(OC)c5)c4)ccc3c2)cc1 category=inactive
compound=CCOC(=O)C(=Cc1ccc(Br)cc1)C(=O)OCC category=active
compound=CCOC(=O)CNC(=O)CCCCSc1ncnc2nc[nH]c12 category=inactive
compound=COc1ccc(Cn2c(C(N)=O)cc3c2-c2nc(N)ncc2CCC3)cc1 category=inactive
compound="CCCCCCCCCCCCCCCCCCOCC(COCCOCC[N+]1(CCCCCC(=O)[O-])CCCC1)Oc1ncccn1 (stereo not given)" category=inactive
compound=CS(=O)(=O)Nc1cccc(-c2cc(-c3ccccc3Cl)c(C#N)c(N)n2)c1 category=inactive
compound=COc1ccc(-c2nc3sc(-c4ccc(OC)cc4)c(-c4ccc(OC)cc4)n3c2/C=C/c2ccc(C(C)C)cc2)cc1 category=inactive

* * *

// reported growth per item
- Test system: T-47D breast
- Test details: NCI-60 one-dose screen, 48 h (100 = growth as untreated, 0 = no growth, -100 = all killed)
- Experimental context: 10 µM
The panel holds about 83,000 compounds, 20% with a hit somewhere; the sample as a whole holds those more often.
Outcome measure: growth (%)

compound_smiles=CCn1cc(C(=O)O)c(=O)c2cnc(N3CCCC3)nc21 outcome_measure=growth recorded_value=99.1
compound_smiles=CCN(CC)Cc1cc(Nc2ccnc3cc(Cl)ccc23)ccc1OC outcome_measure=growth recorded_value=102
compound_smiles=O=C(CCCCCCC(=O)Nc1cccnc1)NO outcome_measure=growth recorded_value=-28.7
compound_smiles=COc1cc(/C=C\c2cc(OC)c(OC)c(OC)c2)cc(NS(=O)(=O)c2ccc(Cl)cc2)c1OC outcome_measure=growth recorded_value=55.3
compound_smiles=O=C(Nc1ccc(Cl)c(Cl)c1)Nc1c(Oc2ccc(Cl)c(Cl)c2)ccc(Cl)c1S(=O)(=O)O outcome_measure=growth recorded_value=51.4
compound_smiles=COc1ccc(-c2cc(/C=C3\C(=O)Nc4ccc(Cl)cc43)[nH]n2)cc1OC outcome_measure=growth recorded_value=72.2
compound_smiles=c1ccc2c(c1)oc1c3cccnc3ccc21 outcome_measure=growth recorded_value=39
compound_smiles=COc1cc(Nc2ccnc(NCCCNc3ccnc4cc(Cl)ccc34)n2)cc(OC)c1 outcome_measure=growth recorded_value=-63.1
compound_smiles=Clc1ccc(Nc2ccnc(NCCNc3ccnc4cc(Cl)ccc34)n2)cc1 outcome_measure=growth recorded_value=-60.2
compound_smiles=COc1ccccc1/C=C/C(=O)c1ccccc1 outcome_measure=growth recorded_value=94.8
compound_smiles=COc1ccc(-c2cc(-c3cccc(NS(C)(=O)=O)c3)nc(N)c2C#N)cc1 outcome_measure=growth recorded_value=57.5

Sourced from PubChem BioAssay (NCI)
